Tested on: SF-539 CNS
assay_notes: NCI tumour cell line growth inhibition, 48 h
Where a SMILES comes first, the peptide text is derived from it. [ ]: non-standard residue; d: D form. The star is where a group is joined. ξ: configuration not given here. X6 = FC(F)(F)c1cc(NC(=S)*)cc(C(F)(F)F)c1; ξF = NC(Cc1ccccc1)C(=O)O
Exercise: state measured TGI for each of the compounds provided.

Give the measured TGI of COC(=O)[C@@H](NC(=O)CNC(=O)[C@H]1CCCN1C(=O)C(Cc1ccccc1)NC(=S)Nc1cc(C(F)(F)F)cc(C(F)(F)F)c1)C(C)C (some centres undefined) (X6-[ξF][dP]GV-OMe) .
3.94 µM

Try CN(C)CC[N+]1=Nc2cccc3cccc(c23)N1 next.
> 100 µM

Try CC1=C(C(=O)NCc2ccccc2)C(/C=C/c2ccccc2)C(C(=O)NCc2ccccc2)=C(C)N1 next.
> 100 µM

Try CC1=CC2C(O1)C1C(=O)C=CC(=O)C1=CC2[N+](=O)[O-] (centres undefined) next.
96.5 µM

Try Oc1cc2c3c(c1)c1cc4c(cc1c[n+]3CC2)OCO4 next.
> 100 µM

Try COC1=CC(c2ccc[nH]2)=N/C1=C\c1[nH]c(C)c(C(=O)OC(C)C)c1C next.
1.53 µM

Try CCCCCCCCCCCOc1ccc(C(=O)C(=O)c2ccc(OCCCCCCCCCCC)c(OCCCCCCCCCCC)c2)cc1OCCCCCCCCCCC next.
> 100 µM

Try Clc1cc2nsnc2c(Cl)n1 next.
46.1 µM

Try O=C1OCC(O)=C1C(c1ccc(Cl)cc1)c1cc2c(cc1O)OCO2 (centres undefined) next.
> 100 µM

Try COc1ccc(/C=C2\CCC(C)C3=C2NC(=S)NC3c2ccc(OC)c(OC)c2)cc1OC (centres undefined) next.
> 31.6 µM

Try CN/N=C(/Cc1occc(=O)c1O)C(=O)Nc1ccccc1C next.
> 100 µM

Try CCC12C=CCN3CCC4(C(=C(C(=O)OC)[C@@H]1O)Nc1ccccc14)C32 (some centres undefined) next.
4.72 µM

Try Cc1c2cnccc2c(C)c2c1c1ccccc1n2CCCN next.
1.35 µM

Try CC(C)CCC[C@@H](C)[C@H]1CC[C@H]2[C@@H]3CC=C4C[C@@H](C(C(=O)O)C(=O)O)CC[C@]4(C)[C@H]3CC[C@]12C next.
0.407 µM
